I'd appreciate it if you could supply interaction score values for the items below.
Tested on: T1, O2-bS
T1 chain: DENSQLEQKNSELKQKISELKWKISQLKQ
Procedure details: two-hybrid library CCNG1;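 also: natural log of median RNA to DNA barcode read ratio; higher means stronger binding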
Answer using only a numeral; do not append any unit.

Identify measured interaction score corresponding to DENSQLEQKNSELKQKISELKWKISQLKQ [O2-bS]
-0.754

Identify measured interaction score corresponding to DEIQQLKQENQELKQKIQELEWKIQELEQ [4H741-bN]
-3.38

Identify measured interaction score corresponding to DKISQLKQKNSELKQEISELEWKNSQLKQ [O16-bS]
-0.368

Identify measured interaction score corresponding to DKISQLKQEISELEQENSELEWENSQLEQ [O11-bS]
-0.471
